- assay-summary: Plasma pharmacokinetics of CX-5461 (HPLC-MS/MS, non-compartmental)
- Format: in vivo, human
- condition-parameters: human, plasma, intravenous, 250 mg/m2, 250 mg/m2; Time 4; individual patients; read-out: Day 1 CX-5461 plasma concentration

- compound: "Cc1cnc(CNC(=O)c2c(=O)c3ccc(N4CCCN(C)CC4)nc3n3c2sc2ccccc23)cn1 [CX-5461]"
  concentration at 4 h / ng/mL: 233

---

- assay-summary: Plasma pharmacokinetics of CX-5461 (HPLC-MS/MS, non-compartmental)
- Format: in vivo, human
- condition-parameters: human, plasma, intravenous, 100 mg/m2, Dose level 100 (mg/m2); one patient per datapoint; read-out: Day 8 or 15 Cmax

- compound: "Cc1cnc(CNC(=O)c2c(=O)c3ccc(N4CCCN(C)CC4)nc3n3c2sc2ccccc23)cn1 [CX-5461]"
  Cmax (ng/mL): 1140

---

- assay-summary: Plasma pharmacokinetics of CX-5461 (HPLC-MS/MS, non-compartmental)
- Format: in vivo, human
- condition-parameters: human, plasma, intravenous, 325 mg/m2, Dose level B: 325 (mg/m2); one patient per datapoint; read-out: Day 1 AUC

- smiles: "Cc1cnc(CNC(=O)c2c(=O)c3ccc(N4CCCN(C)CC4)nc3n3c2sc2ccccc23)cn1"
  u: "ng·h/mL"
  AUC: 25200

---

- assay-summary: Plasma pharmacokinetics of CX-5461 (HPLC-MS/MS, non-compartmental)
- Type: in vivo, human
- condition-parameters: human, plasma, intravenous, 475 mg/m2, 475 mg/m2; Time 72; individual patients; read-out: Day 1 CX-5461 plasma concentration

- smiles: "Cc1cnc(CNC(=O)c2c(=O)c3ccc(N4CCCN(C)CC4)nc3n3c2sc2ccccc23)cn1"
  concentration at 72 h [ng/mL]: 104

---

- assay-summary: Plasma pharmacokinetics of CX-5461 (HPLC-MS/MS, non-compartmental)
- Type: in vivo, human
- condition-parameters: human, plasma, intravenous, 325 mg/m2, B: 325 mg/m2; Time 1; individual patients; read-out: Day 1 CX-5461 plasma concentration
outcome-measure: concentration at 1 h (ng/mL)

- compound: "Cc1cnc(CNC(=O)c2c(=O)c3ccc(N4CCCN(C)CC4)nc3n3c2sc2ccccc23)cn1 [CX-5461]"
  readout-number: 297

---

- assay-summary: Plasma pharmacokinetics of CX-5461 (HPLC-MS/MS, non-compartmental)
- Type: in vivo, human
- condition-parameters: human, plasma, intravenous, 50 mg/m2, 50 mg/m2; Time 24; individual patients; read-out: Day 1 CX-5461 plasma concentration
outcome-measure: concentration at 24 h (ng/mL)

- smiles: "Cc1cnc(CNC(=O)c2c(=O)c3ccc(N4CCCN(C)CC4)nc3n3c2sc2ccccc23)cn1"
  outcome-measure: "concentration at 24 h"
  readout-number: 40

---

- assay-summary: Plasma pharmacokinetics of CX-5461 (HPLC-MS/MS, non-compartmental)
- Assay type: in vivo, human
- condition-parameters: human, plasma, intravenous, 475 mg/m2, RP2D 475 mg/m^2 d1,8,15; read-out: elimination half-life (t1/2), day 1 (converted)

- smiles: "Cc1cnc(CNC(=O)c2c(=O)c3ccc(N4CCCN(C)CC4)nc3n3c2sc2ccccc23)cn1"
  half-life / h: 61.5

---

- assay-summary: Plasma pharmacokinetics of CX-5461 (HPLC-MS/MS, non-compartmental)
- Format: in vivo, human
- condition-parameters: human, plasma, intravenous, 475 mg/m2, Dose level 475 (mg/m2); one patient per datapoint; read-out: Day 8 or 15 Cmax

- compound: "Cc1cnc(CNC(=O)c2c(=O)c3ccc(N4CCCN(C)CC4)nc3n3c2sc2ccccc23)cn1 [CX-5461]"
  Cmax: "1680 ng/mL"

---

- assay-summary: Plasma pharmacokinetics of CX-5461 (HPLC-MS/MS, non-compartmental)
- Assay type: in vivo, human
- condition-parameters: human, plasma, intravenous, 325 mg/m2, 325 mg/m2; Time 1; individual patients; read-out: Day 1 CX-5461 plasma concentration

- smiles: "Cc1cnc(CNC(=O)c2c(=O)c3ccc(N4CCCN(C)CC4)nc3n3c2sc2ccccc23)cn1"
  u: "ng/mL"
  concentration at 1 h: 400

---

- System: HCT116 cells
- assay-summary: HCT116 cytotoxicity (WST-1 assay) with and without UVA radiation
- Type: cell-based, Human
- condition-parameters: UV 5 mJ/cm^2 and 125 mJ/cm^2

- molecule: "C[n+]1cc(NC(=O)c2ccc3ccc4ccc(C(=O)Nc5cc6ccccc6[n+](C)c5)nc4c3n2)cc2ccccc21"
  potentiation of UVA-induced cytotoxicity: "not"
- molecule: "NCCOc1cc(C(=O)Nc2cc(OCCN)c3ccccc3n2)nc(C(=O)Nc2cc(OCCN)c3ccccc3n2)c1"
  potentiation of UVA-induced cytotoxicity: "not"
- molecule: "CN(C)c1ccc(Nc2c3ccc(NC(=O)CCN4CCCC4)cc3nc3cc(NC(=O)CCN4CCCC4)ccc23)cc1"
  potentiation of UVA-induced cytotoxicity: "not"
- molecule: "Cc1cnc(CNC(=O)c2c(=O)c3ccc(N4CCCN(C)CC4)nc3n3c2sc2ccccc23)cn1"
  potentiation of UVA-induced cytotoxicity: "Strong potentiation"
- molecule: "C[n+]1ccc(-c2c3nc(c(-c4cc[n+](C)cc4)c4ccc([nH]4)c(-c4cc[n+](C)cc4)c4nc(c(-c5cc[n+](C)cc5)c5ccc2[nH]5)C=C4)C=C3)cc1"
  potentiation of UVA-induced cytotoxicity: "not"
- molecule: "CN1CCC[C@H]1CCNC(=O)c1cn2c3c(c(N4CCC(c5cnccn5)C4)c(F)cc3c1=O)Oc1cc3ccccc3cc1-2 (stereo partly drawn)"
  potentiation of UVA-induced cytotoxicity: "Strong potentiation"

---

- assay-summary: Plasma pharmacokinetics of CX-5461 (HPLC-MS/MS, non-compartmental)
- Format: in vivo, human
- condition-parameters: human, plasma, intravenous, 250 mg/m2, Dose level 250 (mg/m2); one patient per datapoint; read-out: Day 1 AUC
- Description: PK was assessed on all patients in the escalation phase. Venous blood samples were collected on treatment days 1, 8, and 15 (where applicable), and plasma CX-5461 was analyzed with HPLC-MS/MS (schedule details in Supplementary Table 3). PK parameters were calculated with non-compartmental methods. […] The protocol was amended to allow submission of a ctDNA sample and in a further amendment, a mandatory skin biopsy (pre-treatment and cycle 1 day 15) to study phototoxic effects. […]

- smiles: "Cc1cnc(CNC(=O)c2c(=O)c3ccc(N4CCCN(C)CC4)nc3n3c2sc2ccccc23)cn1"
  AUC, ng·h/mL: 12400

---

- assay-summary: Plasma pharmacokinetics of CX-5461 (HPLC-MS/MS, non-compartmental)
- Assay type: in vivo, human
- condition-parameters: human, plasma, intravenous, 475 mg/m2, 475 mg/m2; Time 48; individual patients; read-out: Day 1 CX-5461 plasma concentration

- smiles: "Cc1cnc(CNC(=O)c2c(=O)c3ccc(N4CCCN(C)CC4)nc3n3c2sc2ccccc23)cn1"
  u: "ng/mL"
  concentration at 48 h: 140

---

- assay-summary: Plasma pharmacokinetics of CX-5461 (HPLC-MS/MS, non-compartmental)
- Format: in vivo, human
- condition-parameters: human, plasma, intravenous, 325 mg/m2, B: 325 mg/m2; Time 4; individual patients; read-out: Day 1 CX-5461 plasma concentration
- Protocol: PK was assessed on all patients in the escalation phase. Venous blood samples were collected on treatment days 1, 8, and 15 (where applicable), and plasma CX-5461 was analyzed with HPLC-MS/MS (schedule details in Supplementary Table 3). PK parameters were calculated with non-compartmental methods. […] The protocol was amended to allow submission of a ctDNA sample and in a further amendment, a mandatory skin biopsy (pre-treatment and cycle 1 day 15) to study phototoxic effects. […]

- smiles: "Cc1cnc(CNC(=O)c2c(=O)c3ccc(N4CCCN(C)CC4)nc3n3c2sc2ccccc23)cn1"
  concentration at 4 h / ng/mL: 252

---

- assay-summary: Plasma pharmacokinetics of CX-5461 (HPLC-MS/MS, non-compartmental)
- Format: in vivo, human
- condition-parameters: human, plasma, intravenous, 250 mg/m2, 250 mg/m2; Time 72; individual patients; read-out: Day 1 CX-5461 plasma concentration

- smiles: "Cc1cnc(CNC(=O)c2c(=O)c3ccc(N4CCCN(C)CC4)nc3n3c2sc2ccccc23)cn1"
  concentration at 72 h, ng/mL: 85.4

---

- assay-summary: Plasma pharmacokinetics of CX-5461 (HPLC-MS/MS, non-compartmental)
- Assay type: in vivo, human
- condition-parameters: human, plasma, intravenous, 50 mg/m2, 50 mg/m2; Time 48; individual patients; read-out: Day 1 CX-5461 plasma concentration
- Method: PK was assessed on all patients in the escalation phase. Venous blood samples were collected on treatment days 1, 8, and 15 (where applicable), and plasma CX-5461 was analyzed with HPLC-MS/MS (schedule details in Supplementary Table 3). PK parameters were calculated with non-compartmental methods. […] The protocol was amended to allow submission of a ctDNA sample and in a further amendment, a mandatory skin biopsy (pre-treatment and cycle 1 day 15) to study phototoxic effects. […]
outcome-measure: concentration at 48 h (ng/mL)

- smiles: "Cc1cnc(CNC(=O)c2c(=O)c3ccc(N4CCCN(C)CC4)nc3n3c2sc2ccccc23)cn1"
  readout-number: 24.8

The measured values listed here are drawn from paper PMC9232501.
